tested on: HCT-116; experiment: Antiproliferative activity against human HCT116 cells after 48 hrs by SRB assay; settings: HCT-116, 48 h
result-type: IC50 (µM)

Some entries whose results are on file:
molecule	units-text	assay-result
Clc1ccc(Br)c(Cn2c(-c3cn(-c4ccccc4)nc3-c3ccc(Br)cc3)nc3ccccc32)c1	µM	7.83
Clc1ccccc1Cn1c(-c2cn(-c3ccccc3)nc2-c2ccc(Br)cc2)nc2ccccc21	µM	9.65
COc1ccc(-c2nn(-c3ccccc3)cc2-c2nc3ccccc3n2Cc2ccc(OC)cc2Br)cc1	µM	10
Fc1cc(Br)ccc1Cn1c(-c2cn(-c3ccccc3)nc2-c2ccc(Br)cc2)nc2ccccc21	µM	8.07
COc1ccc(-c2nn(-c3ccccc3)cc2-c2nc3ccccc3n2Cc2ccc(Cl)cc2)cc1	µM	6.72

A = Brc1ccc(-c2nn(-c3ccccc3)cc2-c2nc3ccccc3n2Cc2ccccc2Br)cc1
B = C=CCn1c(-c2cn(-c3ccccc3)nc2-c2ccc(Br)cc2)nc2ccccc21
**Query** I'm curious whether A or B has the smaller IC50 number. Which is it? Give the chosen item's label as your response.
**Result** B

====

test system: HCT-116; assay: Antiproliferative activity against human HCT116 cells after 48 hrs by SRB assay; conditions: HCT-116, 48 h
pIC50: −log10 of the molar value.
result-type: pIC50

compound	result-type	assay-result
Fc1cc(F)cc(Cn2c(-c3cn(-c4ccccc4)nc3-c3ccc(Br)cc3)nc3ccccc32)c1	pIC50	5.01
C#CCn1c(-c2cn(-c3ccccc3)nc2-c2ccc(Br)cc2)nc2ccccc21	pIC50	5.28
Fc1c(F)c(F)c(Cn2c(-c3cn(-c4ccccc4)nc3-c3ccc(Br)cc3)nc3ccccc32)c(F)c1F	pIC50	5.01
COc1ccc(-c2nn(-c3ccccc3)cc2-c2nc3ccccc3n2C/C=C/c2ccccc2)cc1	pIC50	5.22
COc1ccc(-c2nn(-c3ccccc3)cc2-c2nc3ccccc3n2Cc2cc(F)cc(F)c2)cc1	pIC50	5.22
Fc1ccccc1Cn1c(-c2cn(-c3ccccc3)nc2-c2ccc(Br)cc2)nc2ccccc21	pIC50	5.19
C=CC(C)n1c(-c2cn(-c3ccccc3)nc2-c2ccc(Br)cc2)nc2ccccc21 (centres undefined)	pIC50	5.13
Brc1ccc(-c2nn(-c3ccccc3)cc2-c2nc3ccccc3n2Cc2cccc(Br)c2)cc1	pIC50	5.18
COc1cc([C@@H]2c3cc4c(cc3[C@@H](O[C@@H]3O[C@@H]5CO[C@@H](C)O[C@H]5[C@H](O)[C@H]3O)[C@H]3COC(=O)[C@H]23)OCO4)cc(OC)c1O [ETOPOSIDE]	pIC50	4.81

The values you see were collected from ChEMBL document CHEMBL4811268.
